test: L-012 assay: inhibition of SIN-1 generated peroxynitrite induced luminescence/fluorescence of L-012; format: biochemical; settings: 15 minute time point; average of three plates
pIC50: −log10 of the molar value.
measure: pIC50

CC1(C)SC(Nc2cc(Cl)ccc2O)=N[C@H]1C(=O)O; 6.59
Cc1ccc(O)c(NC2=N[C@@H](C(=O)O)C(C)(C)S2)c1; 6.27
COc1ccc(NC2=N[C@@H](C(=O)O)C(C)(C)S2)c(O)c1; 6.85
CC1(C)SC(Nc2ccccc2O)=N[C@H]1C(=O)O; 6.57
COC(=O)[C@@H]1N=C(Nc2ccc(OC)cc2O)SC1(C)C; 6.52
CC1(C)SC(Nc2ccccc2O)=N[C@@H]1C(=O)O; 6.89
COC(=O)[C@@H]1N=C(Nc2cc(Cl)ccc2O)SC1(C)C; 6.26
